B1: PTPN9 (parent)
chain: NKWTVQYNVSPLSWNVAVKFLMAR

Variants of: B1
protocolNotes: protein stability index of a GFP-peptide fusion (GPS, HEK-293T) (PSI 1-6); higher = more stable;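 also: lentivirally expressed fusions sorted by FACS into six bins by GFP to DsRed ratio, PSI derived from sequencing read proportions per bin multiplied by bin number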
measurementContext: c terminus: a fixed tail appended
Rule: protein stability index under 3 gives Condition not met, otherwise Condition met.

Below are worked cases with known answers.
mutation: N8A
answerLabel: Condition not met
//
mutation: M22I
answerLabel: Condition not met
//
mutation: V5D
answerLabel: Condition not met

Prompt: Does protein stability index meet or surpass 3 for `Q6T` ?
Response: Condition not met

Prompt: Does protein stability index meet or surpass 3 for `Q6K` ?
Response: Condition met

Prompt: Does protein stability index meet or surpass 3 for `N1S` ?
Response: Condition not met

Prompt: Does protein stability index meet or surpass 3 for `V5M` ?
Response: Condition met

Prompt: Does protein stability index meet or surpass 3 for `S13Q` ?
Response: Condition not met
